Would you mind telling me the reported mass density of each entry?
Conditions: 313.15 K; 101 kPa; Liquid; Vibrating tube method
Value expressed in kg/m3; do not type the unit.

CCCCCCO yielded mass density of 804.25

Quick note, mass density for CCCC(=O)OCC [ethyl butanoate] landed at 857.7

Lab book: mass density of CCCO noted as 787.52

The compound listed as CCCCO shows mass density equal to 794.22

// CC(C)CO : mass density value = 786.31

Notebook: CC(C)CCO , mass density read as 793.51

---

Experiment: xn = mol fraction of the nth substance listed
Conditions: 303.15 K; 101 kPa; Liquid; Falling or rolling sphere viscometry; x1 = 0.5
REPORTED ENDPOINT: viscosity (mPa·s)
Record the value in mPa·s, omitting the unit from your answer.

Summary for this compound, CCCC(=O)OCC [ethyl butanoate] + CCCCO : viscosity is 0.8111

Measured viscosity, CCCC(=O)OCC [ethyl butanoate] + CCCCCCO : 1.069

Record summary for CCCC(=O)OCC [ethyl butanoate] + CC(C)CO : reported viscosity = 0.8309

// field: viscosity; key: CCCC(=O)OCC [ethyl butanoate] + CC(C)CCO ; value = 0.9221
